Each record here notes measured yeast fitness.
B1: tRNA (parent)
chain: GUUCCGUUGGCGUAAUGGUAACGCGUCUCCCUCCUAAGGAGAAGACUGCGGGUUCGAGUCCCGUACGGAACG

Variants of: B1
Experiment: yeast fitness relative to wild type (ratio to wild type); higher = fitter; tRNA-Arg(CCU), competitive growth, 37 C, YPD
Fewer inactive variants are shown than the library holds.
Just the number, please, no unit attached.

U8G U47A: 0.602
G23C U59C: 0.583
G18A U19C A43U U59A: 0.538
C11G G12C: 0.7

Proceeding to the next variant to report its yeast fitness.
QUERY: Given the variant C4G G68C , write its reported yeast fitness.
RESULT: 0.971
